System: MT2
Assay: Cytotoxicity against human MT2 cells infected with HIV1 3B by MTT assay
Type: cell-based
Classes (CC50): 1 (below 20 µM), 2 (20 µM to below 30 µM), 3 (30 µM or more)

smiles=O=c1ccn(CCOc2ccc(Cl)cc2Cc2c(Cl)cccc2Cl)c(=O)[nH]1 target_under_test=MT2 class_assignment=3
smiles=O=c1ccn(CCOc2cc(Cl)cc(Cl)c2Oc2ccccc2Cl)c(=O)[nH]1 target_under_test=MT2 class_assignment=1
smiles=N#C/C=C/c1cc(F)cc(Oc2ccc(F)cc2OCCn2ccc(=O)[nH]c2=O)c1 target_under_test=MT2 class_assignment=3
smiles=O=c1ccn(CCOc2ccc(Cl)cc2Cc2cc(Cl)cc(Cl)c2)c(=O)[nH]1 target_under_test=MT2 class_assignment=1
smiles=O=c1[nH]c(=O)n(CCOc2ccc(Cl)cc2Cc2ccccc2)cc1F target_under_test=MT2 class_assignment=2
smiles=N#Cc1cc(C#N)cc(Oc2ccc(Cl)cc2OCCn2ccc(=O)[nH]c2=O)c1 target_under_test=MT2 class_assignment=3
smiles=N#Cc1cccc(Cl)c1Oc1cc(Cl)ccc1OCCn1ccc(=O)[nH]c1=O target_under_test=MT2 class_assignment=3
smiles=N#Cc1ccc(Oc2ccccc2Cl)c(OCCn2ccc(=O)[nH]c2=O)c1 target_under_test=MT2 class_assignment=3
smiles=N#Cc1ccc(Oc2cc(Cl)ccc2Cl)c(OCCn2ccc(=O)[nH]c2=O)c1 target_under_test=MT2 class_assignment=3
smiles=O=c1ccn(CCOc2ccc(Cl)cc2Cc2cc(Cl)ccc2Cl)c(=O)[nH]1 target_under_test=MT2 class_assignment=1
smiles=N#Cc1cc(Cl)cc(Oc2ccc(Cl)cc2OCCn2cc(F)c(=O)[nH]c2=O)c1 target_under_test=MT2 class_assignment=1
smiles=N#C/C=C/c1cccc(Oc2ccc(Cl)cc2OCCn2ccc(=O)[nH]c2=O)c1 target_under_test=MT2 class_assignment=1
smiles=N#Cc1cc(Cl)cc(Oc2cc(Cl)ccc2OCCn2ccc(=O)[nH]c2=O)c1 target_under_test=MT2 class_assignment=3
smiles=N#Cc1cc(F)c(Oc2ccccc2Cl)c(OCCn2ccc(=O)[nH]c2=O)c1 target_under_test=MT2 class_assignment=3
smiles=O=c1ccn(CCOc2ccc(Cl)cc2Cc2ccccc2Cl)c(=O)[nH]1 target_under_test=MT2 class_assignment=2
smiles=COCCOc1cccc(Oc2ccc(C#N)cc2OCCn2ccc(=O)[nH]c2=O)c1 target_under_test=MT2 class_assignment=3
smiles=O=c1ccn(CCOc2ccc(Cl)cc2Cc2cccc(Cl)c2)c(=O)[nH]1 target_under_test=MT2 class_assignment=1
smiles=O=c1[nH]c(=O)n(CCOc2ccc(Cl)cc2Cc2ccccc2)cc1Cl target_under_test=MT2 class_assignment=2

====

Test system: Human immunodeficiency virus 1
Assay: Antiviral activity against Human immunodeficiency virus 1 3B infected in human MT2 cells assessed as protection against viral infection by MTT assay
Type: functional, organism-based
pEC50: −log10 of the molar value.
Reported pEC50 values for the following molecules.
value-type: pEC50

smiles=CNc1ccc(Oc2cc(Cl)cc(/C=C/C#N)c2)c(OCCn2ccc(=O)[nH]c2=O)c1 value_type=pEC50 readout_number=7.70
smiles=N#Cc1cc(Cl)cc(Oc2ccc(C#N)cc2OCCn2ccc(=O)[nH]c2=O)c1 value_type=pEC50 readout_number=5.22
smiles=O=c1ccn(CCOc2ccc(Cl)cc2Cc2c(Cl)cccc2Cl)c(=O)[nH]1 value_type=pEC50 readout_number=6.51
smiles=N#Cc1ccc(Oc2cc(Cl)ccc2Cl)c(OCCn2ccc(=O)[nH]c2=O)c1 value_type=pEC50 readout_number=7.37
smiles=N#Cc1ccc(Oc2ccccc2Cl)c(OCCn2ccc(=O)[nH]c2=O)c1 value_type=pEC50 readout_number=6.57
smiles=N#Cc1cc(Cl)cc(Oc2cc(Cl)ccc2OCCn2ccc(=O)[nH]c2=O)c1 value_type=pEC50 readout_number=7.05
smiles=N#Cc1ccc(Oc2cc(Cl)cc(Cl)c2)c(OCCn2ccc(=O)[nH]c2=O)c1 value_type=pEC50 readout_number=7.70
smiles=N#Cc1cc(C#N)cc(Oc2cc(Cl)ccc2OCCn2ccc(=O)[nH]c2=O)c1 value_type=pEC50 readout_number=6.85
smiles=O=c1[nH]c(=O)n(CCOc2ccc(Cl)cc2Cc2ccccc2)cc1F value_type=pEC50 readout_number=5.60
smiles=O=c1ccn(CCOc2ccc(Cl)cc2Cc2ccc(Cl)cc2Cl)c(=O)[nH]1 value_type=pEC50 readout_number=5.54
smiles=N#Cc1cc(F)c(Oc2ccccc2Cl)c(OCCn2ccc(=O)[nH]c2=O)c1 value_type=pEC50 readout_number=6.80
smiles=O=c1ccn(CCOc2cc(Cl)ccc2Cc2ccccc2Cl)c(=O)[nH]1 value_type=pEC50 readout_number=6.39
smiles=N#Cc1ccc(Oc2cccc(OCCCO)c2)c(OCCn2ccc(=O)[nH]c2=O)c1 value_type=pEC50 readout_number=5.74
smiles=N#C/C=C/c1cccc(Oc2ccc(Cl)cc2OCCn2ccc(=O)[nH]c2=O)c1 value_type=pEC50 readout_number=8.30
smiles=O=c1ccn(CCOc2ccc(Cl)cc2Cc2cc(Cl)cc(Cl)c2)c(=O)[nH]1 value_type=pEC50 readout_number=5.89
smiles=N#Cc1cc(Cl)cc(Oc2ccc(Cl)cc2OCCn2cc(F)c(=O)[nH]c2=O)c1 value_type=pEC50 readout_number=7.89
smiles=Cc1cn(CCOc2ccc(Cl)cc2Cc2ccccc2)c(=O)[nH]c1=O value_type=pEC50 readout_number=5.62
smiles=Cc1ccc(OCCn2ccc(=O)[nH]c2=O)c(Cc2ccccc2)c1 value_type=pEC50 readout_number=5.32
smiles=N#Cc1cccc(Cl)c1Oc1cc(Cl)ccc1OCCn1ccc(=O)[nH]c1=O value_type=pEC50 readout_number=6.92
smiles=N#C/C=C/c1cc(F)cc(Oc2ccc(F)cc2OCCn2ccc(=O)[nH]c2=O)c1 value_type=pEC50 readout_number=9.49
smiles=O=c1[nH]c(=O)n(CCOc2ccc(Cl)cc2Cc2ccccc2)cc1Cl value_type=pEC50 readout_number=5.66
smiles=N#C/C=C/c1cc(F)cc(Oc2ccc(Cl)cc2OCCn2ccc(=O)[nH]c2=O)c1 value_type=pEC50 readout_number=8.49
smiles=O=c1ccn(CCOc2ccc(Cl)cc2Cc2ccccc2)c(=O)[nH]1 value_type=pEC50 readout_number=5.92
smiles=N#Cc1cc(C#N)cc(Oc2ccc(Cl)cc2OCCn2ccc(=O)[nH]c2=O)c1 value_type=pEC50 readout_number=7.34
smiles=N#Cc1cc(Cl)cc(Oc2ccc(C#N)cc2OCCn2cc(Cl)c(=O)[nH]c2=O)c1 value_type=pEC50 readout_number=5.28

====

Tested on: MT2
Assay: Cytotoxicity against human MT2 cells infected with HIV1 NL4.3 by MTT assay
Assay type: cell-based
Details: mt2
value-type: CC50

smiles=Cc1cc(/C=C/C#N)cc(C)c1Nc1ccnc(Nc2ccc(C#N)cc2)n1 value_type=CC50 result="> 1 µM"
smiles=N#Cc1ccc(Oc2cc(Cl)cc(Cl)c2)c(OCCn2ccc(=O)[nH]c2=O)c1 value_type=CC50 result="> 61 µM"
smiles=N#C/C=C/c1cccc(Oc2ccc(C#N)cc2OCCn2ccc(=O)[nH]c2=O)c1 value_type=CC50 result="> 90 µM"
